Molecular target: T1, human beta-Klotho (human, UniProt Q86Z14 1-1044)
T1 sequence (looked up): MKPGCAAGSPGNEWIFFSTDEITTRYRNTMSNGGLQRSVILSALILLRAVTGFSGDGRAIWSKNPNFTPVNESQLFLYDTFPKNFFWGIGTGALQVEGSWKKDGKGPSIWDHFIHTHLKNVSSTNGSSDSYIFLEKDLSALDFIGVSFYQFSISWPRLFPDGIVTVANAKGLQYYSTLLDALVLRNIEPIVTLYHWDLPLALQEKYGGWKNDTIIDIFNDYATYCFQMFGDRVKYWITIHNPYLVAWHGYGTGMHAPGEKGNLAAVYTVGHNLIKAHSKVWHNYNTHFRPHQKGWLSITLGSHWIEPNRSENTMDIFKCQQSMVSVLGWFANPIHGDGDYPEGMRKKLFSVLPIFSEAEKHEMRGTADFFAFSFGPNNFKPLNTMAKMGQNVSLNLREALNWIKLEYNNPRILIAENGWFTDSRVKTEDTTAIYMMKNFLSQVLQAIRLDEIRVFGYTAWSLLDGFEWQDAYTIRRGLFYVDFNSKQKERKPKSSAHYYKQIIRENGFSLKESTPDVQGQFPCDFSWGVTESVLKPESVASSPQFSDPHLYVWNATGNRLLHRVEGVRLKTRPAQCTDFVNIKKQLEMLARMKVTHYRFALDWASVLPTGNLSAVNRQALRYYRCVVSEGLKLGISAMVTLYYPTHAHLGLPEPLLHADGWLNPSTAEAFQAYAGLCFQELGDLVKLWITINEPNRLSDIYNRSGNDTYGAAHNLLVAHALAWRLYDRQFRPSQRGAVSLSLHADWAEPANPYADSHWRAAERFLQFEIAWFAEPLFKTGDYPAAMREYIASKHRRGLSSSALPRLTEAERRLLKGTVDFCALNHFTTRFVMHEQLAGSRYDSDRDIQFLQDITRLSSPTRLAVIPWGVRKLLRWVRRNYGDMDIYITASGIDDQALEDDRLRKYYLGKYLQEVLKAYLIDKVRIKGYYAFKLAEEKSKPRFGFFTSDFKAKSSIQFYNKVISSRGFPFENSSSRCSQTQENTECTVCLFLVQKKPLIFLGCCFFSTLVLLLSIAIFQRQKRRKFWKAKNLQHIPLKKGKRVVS
Test: cell-based or functional assay
assay readout: pERK-HEK293-Beta-klotho without HSA [EC50 (nM)] Median Value
Numeric answer only, unit nM assumed.

**Query** Sample (K56R, K59R, K69R, K122R) EEAEAGGAGGSGGS-FGF21 (ligand) EEAEAGGAGGSGGSHPIPDSSPLLQFGGQVRQRYLYTDDAQQTEAHLEIREDGTVGGAADQSPESLLQLRALRPGVIQILGVRTSRFLCQRPDGALYGSLHFDPEACSFRELLLEDGYNVYQSEAHGLPLHLPGNRSPHRDPAPRGPARFLPLPGLPPALPEPPGILAPQPPDVGSSDPLSMVGPSQGRSPSYAS — what was its pERK-HEK293-Beta-klotho without HSA [EC50 (nM)] Median Value?
**Result** 2

**Query** Sample Gly-FGF21-M168L (ligand) GHPIPDSSPLLQFGGQVRQRYLYTDDAQQTEAHLEIREDGTVGGAADQSPESLLQLKALKPGVIQILGVKTSRFLCQRPDGALYGSLHFDPEACSFRELLLEDGYNVYQSEAHGLPLHLPGNKSPHRDPAPRGPARFLPLPGLPPALPEPPGILAPQPPDVGSSDPLSLVGPSQGRSPSYAS — what was its pERK-HEK293-Beta-klotho without HSA [EC50 (nM)] Median Value?
**Result** 1.8

**Query** Sample (K56R, K59R, K69R, N121Q, K122R, L166F, S167G, M168L, 169aT, P171L, S172E, Q173A, G174V, Y179F, A180E, S181R) FGF21 (ligand) HPIPDSSPLLQFGGQVRQRYLYTDDAQQTEAHLEIREDGTVGGAADQSPESLLQLRALRPGVIQILGVRTSRFLCQRPDGALYGSLHFDPEACSFRELLLEDGYNVYQSEAHGLPLHLPGQRSPHRDPAPRGPARFLPLPGLPPALPEPPGILAPQPPDVGSSDPFGLVTGLEAVRSPSFER — what was its pERK-HEK293-Beta-klotho without HSA [EC50 (nM)] Median Value?
**Result** 3
